# assayName: qHTS assay to identify small molecule antagonists of the sonic hedgehog signaling (Shh) pathway (AID 1259369); note: nearly all actives have a fitted effect of over 45% in size
# conditionInfo: NIH/3T3 Gli1-Luc reporter, Shh antagonist, luminescence 24 h; series mostly up to 92.4 µM
Records with an inconclusive call do not appear. Calls of active or inactive are those of the source. Calls come from the whole dose curve.
Outcomes: active, inactive

INSERT INTO measurements (molecule, label) VALUES
  ('CC1=C(/C=C/C(C)=C/C=C/C(C)=C/CO)C(C)(C)CCC1', 'active'),
  ('COCC(C)O (stereo not given)', 'inactive'),
  ('CC(C)(N=C=O)c1cccc(C(C)(C)N=C=O)c1', 'inactive'),
  ('O=S(=O)(O)c1cc(S(=O)(=O)O)c2c(N=Nc3ccccc3)c(O)ccc2c1', 'inactive'),
  ('CS(=O)(=O)c1ccc([C@@H](O)[C@@H](CO)NC(=O)C(Cl)Cl)cc1', 'inactive'),
  ('CC1(C)CC(N=C=O)CC(C)(CN=C=O)C1 (stereo not given)', 'inactive'),
  ('Cc1cc(O)c2c(c1)C(=O)c1cc(O)cc(O)c1C2=O', 'active'),
  ('O=S(=O)(O)CCS', 'inactive'),
  ('OCC1CCCO1 (stereo not given)', 'inactive'),
  ('CC(C)(CO)COC(=O)C(C)(C)CO', 'inactive'),
  ('NCCc1ccc(O)c(O)c1', 'active'),
  ('CCc1ccccc1O', 'inactive'),
  ('CCC(=O)O', 'inactive'),
  ('NS(=O)(=O)c1cc2c(cc1Cl)NC=NS2(=O)=O', 'inactive'),
  ('O=C(O)c1ccc([N+](=O)[O-])cc1', 'inactive'),
  ('Cn1c([N+](=O)[O-])cnc1COC(N)=O', 'inactive'),
  ('CCCCCCCCCCC=CC1CC(=O)OC1=O (stereo not given)', 'inactive'),
  ('C=C(C)C(=O)OCCCCCC', 'inactive'),
  ('CCOC(=O)/C=C\C(=O)OCC', 'inactive'),
  ('COC(=O)c1ccccc1O', 'inactive'),
  ('O=C1O[C@H](CO)[C@@H](O)[C@H](O)[C@H]1O', 'inactive'),
  ('O=[N+]([O-])C(CO)(CO)CO', 'active'),
  ('CC(=O)Nc1ccc(C(=O)O)cc1', 'inactive'),
  ('Nc1nc2ncc(CNc3ccc(C(=O)N[C@@H](CCC(=O)O)C(=O)O)cc3)nc2c(=O)[nH]1', 'inactive'),
  ('CCCCCCCCCCCCOCC1CO1 (stereo not given)', 'inactive'),
  ('S=c1nc[nH]c2nc[nH]c12', 'inactive'),
  ('CC(C)Cc1ccccc1', 'inactive'),
  ('NC(=O)/N=N/C(N)=O', 'inactive'),
  ('Nc1c(S(=O)(=O)O)cc(Br)c2c1C(=O)c1ccccc1C2=O', 'inactive'),
  ('CCCCOCCO', 'inactive'),
  ('O=[N+]([O-])c1cc(N(CCO)CCO)ccc1NCCO', 'inactive'),
  ('CCCCCCOC(C)=O', 'inactive'),
  ('Cc1cc(Cc2ccc(N)c(C)c2)ccc1N', 'inactive'),
  ('CC(C)(C)C1CCC(O)CC1 (stereo not given)', 'inactive'),
  ('CC[Si](OC(C)=O)(OC(C)=O)OC(C)=O', 'inactive'),
  ('Cc1ccc(N)c(S(=O)(=O)O)c1', 'inactive'),
  ('O=Nc1ccc(O)cc1', 'inactive'),
  ('CC(C)(C)C(=O)C1C(=O)c2ccccc2C1=O', 'active'),
  ('OC[C@@H](O)[C@H](O)[C@H](O)[C@@H](O)CO', 'inactive'),
  ('O=[N+]([O-])c1cccc(Cl)c1', 'inactive'),
  ('C=CC(=O)OCCCCCCCC(C)C', 'inactive'),
  ('CCCCCCCCC', 'inactive'),
  ('O=C(Oc1ccccc1)c1ccc(O)cc1', 'inactive'),
  ('CCCCNC(N)=O', 'inactive'),
  ('CN(CCOc1ccc(CC2SC(=O)NC2=O)cc1)c1ccccn1 (stereo not given)', 'inactive'),
  ('NC(=O)NNc1ccccc1', 'inactive'),
  ('CC(=O)[C@@]1(O)CC[C@H]2[C@@H]3CCC4=CC(=O)CC[C@]4(C)[C@H]3CC[C@@]21C', 'inactive'),
  ('Cc1cc(O)cc(C)c1Cl', 'active'),
  ('OC1CCCC1', 'inactive'),
  ('O=C(Cl)c1c(Cl)c(Cl)c(C(=O)Cl)c(Cl)c1Cl', 'inactive');
